Hello, the source for this data is ChEMBL document CHEMBL4828718, in case you need it.

Test system: Cryptococcus neoformans
Experiment: Antifungal activity against Cryptococcus neoformans ATCC 90113 assessed as fungal growth inhibition incubated for 72 hrs by alamar blue assay
Format: functional
Settings: Cryptococcus neoformans, ATCC 90113, 72 h, read-out: MIC
PROPERTY MEASURED: MIC (µM)

Here is how some compounds turned out for MIC.
[
  {
    "COMPOUND": "C[C@@H]1[C@H](O)[C@@H](C)/C=C/C=C/C=C/C=C/C=C/C=C/C=C/[C@H](O[C@@H]2O[C@H](C)[C@@H](O)[C@H](N)[C@@H]2O)C[C@@H]2O[C@](O)(C[C@@H](O)C[C@@H](O)[C@H](O)CC[C@@H](O)C[C@@H](O)CC(=O)O[C@H]1C)C[C@H](O)[C@H]2C(=O)O [AMPHOTERICIN B]",
    "MIC / µM": 0.65
  },
  {
    "COMPOUND": "CCCCCCCCCCCCCCC1(O)C(C)=C(C)C2=[N+](Cc3cc(C(F)(F)F)cc(C(F)(F)F)c3)CCCN21 (centres undefined)",
    "MIC / µM": 1.8
  }
]

a. CCCCCCCCCCCCCCC1(O)C(C)=C(C)C2=[N+](C)CCCN21 (centres undefined)
b. CCCCCCCCCCCCCCC1(O)C(C)=C(C)C2=[N+](C)c3ccccc3CN21 (centres undefined)
c. CCCCCCCCCCCCCCC1(O)C(C)=C(C)C2=[N+](Cc3ccccc3)CCCN21 (centres undefined)
d. CCCCCCCCCCCCCCC1(O)C(C)=C(C)C2=[N+](CC(=O)O)CCCN21 (centres undefined)
Task: Sort low-to-high on MIC, please. Put the labels in the requested order and write them down.
Output: a, c, b, d

a. CCCCCCCCCCCCCCC1(O)C(C)=C(C)C2=[N+](Cc3ccc(C#N)cc3)CCCN21 (centres undefined)
b. CCCCCCCCCCCCCCC1(O)C(C)=C(C)C2=[N+](CC(=O)NCCCC)CCCN21 (centres undefined)
c. CCCCCCCCCCCCCCc1c(C)c(C)cn1CCCN
d. CCCCCCCCCCCCCCC1(O)C(C)=C(C)C2=[N+](CC(=O)c3cccs3)CCCN21 (centres undefined)
e. CCCCCCCCCCCCCCC1(O)C=CC2=[N+](C)CCCN21 (centres undefined)
Task: Hello, I need these entries ordered by MIC, highest reading first. Thanks! Put the labels in the requested order and write them down.
Output: d, c, b, a, e
(d: 12 µM, c: 2.9 µM, b: 1.8 µM, a: 1.1 µM, e: 0.21 µM)

1. C=CC[N+]1=C2C(C)=C(C)C(O)(CCCCCCCCCCCCCC)N2CCC1 (centres undefined)
2. CCCCCCCCCCCCCCC1(O)C(C)=C(C)C2=[N+](CC(=O)NCCCNC(=O)OC(C)(C)C)CCCN21 (centres undefined)
Task: 1 or 2 : whose MIC is greater? Answer with the label corresponding to your selection.
Output: 2
(2: 3.8 µM, 1: 1 µM)

P. CCCCCCCCCCCCCCC1(O)C(C)=C(C)C2=[N+](Cc3cnnn3Cc3ccccc3)CCCN21 (centres undefined)
Q. CCCCCCCCCCCCCCC1(O)C(C)=C(C)C2=[N+](Cc3ccc(F)cc3F)CCCN21 (centres undefined)
Task: P or Q : whose MIC is greater? Answer with the label corresponding to your selection.
Output: P
(P: 1.3 µM, Q: 0.88 µM)

I. CCCCCCCCCCCCCCC1(O)C(C)=C(C)C2=[N+](C/C=C/c3ccccc3)CCCN21 (centres undefined)
II. CCCCCCCCCCCCCCC1(O)C(C)=C(C)C2=[N+](Cc3ccc(Br)cc3)CCCN21 (centres undefined)
III. CCCCCCCCCCCCCCC1(O)c2ccccc2C2=[N+](C)CCCN21 (centres undefined)
Task: Sort low-to-high on MIC, please. Put the labels in the requested order and write them down.
Output: I, II, III

P. CCCCCCCCCCCCCCC1(O)C(C)=C(C)C2=[N+](Cc3ccc(C(F)(F)F)cc3)CCCN21 (centres undefined)
Q. CCCCCCCCCCCCCCC1(O)C(C)=C(C)C2=[N+](CC(=O)OCC)CCCN21 (centres undefined)
Task: Lowest MIC? choose P or Q Answer with the label corresponding to your selection.
Output: P

I. CCCCCCCCCCCCCCC1(O)C(C)=C(C)C2=[N+](Cc3ccc([N+](=O)[O-])cc3)CCCN21 (centres undefined)
II. CCCCCCCCCCCCCCC1(O)C(C)=C(C)C2=[N+](Cc3ccc4ccccc4c3)CCCN21 (centres undefined)
Task: Lowest MIC? choose I or II Answer with the label corresponding to your selection.
Output: I
(I: 1.4 µM, II: 3.9 µM)

1. CCCCCCCCCCCCCCC1(O)C(C)=C(C)C2=[N+](CC#N)CCCN21 (centres undefined)
2. CCCCCCCCCCCCCCC1(O)C(C)=C(C)C2=[N+](Cc3cc(OC)c(OC)c(OC)c3)CCCN21 (centres undefined)
3. CCCCCCCCCCCCCCC1(O)C(C)=C(C)C2=[N+](CC(=O)NCCOCCOCCOCCNC(=O)CCCC[C@@H]3SC[C@@H]4NC(=O)N[C@@H]43)CCCN21 (some centres undefined)
Task: Sort low-to-high on MIC, please. Put the labels in the requested order and write them down.
Output: 1, 2, 3
(1: 1 µM, 2: 1.6 µM, 3: 3.7 µM)

----------
Test system: Pichia kudriavzevii
Assay: Antifungal activity against Candida krusei ATCC 6258 assessed as fungal growth inhibition incubated for 18 to 24 hrs by alamar blue assay
Assay type: functional
Settings: Pichia kudriavzevii, ATCC 6258, time 18-24 hrs; read-out: MIC
PROPERTY MEASURED: MIC (µM)

[
  {
    "COMPOUND": "CCCCCCCCCCCCCCC1(O)C(C)=C(C)C2=[N+](C)CCCN21 (centres undefined)",
    "TEST SYSTEM": "Pichia kudriavzevii",
    "MIC [µM]": 2
  }
]

P. C=CC[N+]1=C2C(C)=C(C)C(O)(CCCCCCCCCCCCCC)N2CCC1 (centres undefined)
Q. CCCCCCCCCCCCCCC1(O)C(C)=C(C)C2=[N+](Cc3cc(C(F)(F)F)cc(C(F)(F)F)c3)CCCN21 (centres undefined)
Task: Lowest MIC? choose P or Q Answer with the label corresponding to your selection.
Output: P
(P: 2.5 µM, Q: 3.7 µM)

a. CCCCCCCCCCCCCCC1(O)C(C)=C(C)C2=[N+](Cc3ccc(F)cc3)CCCN21 (centres undefined)
b. CCCCCCCCCCCCCCC1(O)C(C)=C(C)C2=[N+](CC#N)CCCN21 (centres undefined)
Task: a or b : whose MIC is greater? Answer with the label corresponding to your selection.
Output: b

1. CCCCCCCCCCCCCCC1(O)C(C)=C(C)C2=[N+](Cc3ccc(OC)cc3)CCCN21 (centres undefined)
2. CCCCCCCCCCCCCCC1(O)C(C)=C(C)C2=[N+](CC(=O)OCC)CCCN21 (centres undefined)
Task: 1 or 2 : whose MIC is greater? Answer with the label corresponding to your selection.
Output: 2

P. CCCCCCCCCCCCCCC1(O)C(C)=C(C)C2=[N+](Cc3ccc(C#N)cc3)CCCN21 (centres undefined)
Q. CCCCCCCCCCCCCCC1(O)C(C)=C(C)C2=[N+](CC(=O)c3cccs3)CCCN21 (centres undefined)
Task: Lowest MIC? choose P or Q Answer with the label corresponding to your selection.
Output: P
(P: 2.1 µM, Q: 5.1 µM)

1. CCCCCCCCCCCCCCC1(O)C(C)=C(C)C2=[N+](Cc3ccc(C(F)(F)F)cc3)CCCN21 (centres undefined)
2. CCCCCCCCCCCCCCc1c(C)c(C)cn1CCCNC
Task: 1 or 2 : whose MIC is greater? Answer with the label corresponding to your selection.
Output: 2

I. CCCCCCCCCCCCCCC1(O)C(C)=C(C)C2=[N+](Cc3cc(OC)c(OC)c(OC)c3)CCCN21 (centres undefined)
II. CCCCCCCCCCCCCCC1(O)C(C)=C(C)C2=[N+](Cc3cnnn3Cc3ccccc3)CCCN21 (centres undefined)
Task: I or II : whose MIC is greater? Answer with the label corresponding to your selection.
Output: II

A. CCCCCCCCCCCCCCC1(O)C(C)=C(C)C2=[N+](Cc3ccc(F)cc3F)CCCN21 (centres undefined)
B. CCCCCCCCCCCCCCC1(O)C(C)=C(C)C2=[N+](CC(=O)NCCCC)CCCN21 (centres undefined)
Task: Lowest MIC? choose A or B Answer with the label corresponding to your selection.
Output: A
(A: 1.8 µM, B: 3.8 µM)

----------
Listed molecules paired with reported MFC
Tested on: Aspergillus fumigatus
Assay: Fungicidal activity against Aspergillus fumigatus ATCC 90906 assessed as fungal growth inhibition incubated for 72 hrs by alamar blue assay
Format: functional
Conditions: Aspergillus fumigatus, ATCC 90906, 72 h, read-out: MFC
Give just the number in µM; leave the unit off.

[
  {
    "MOLECULE": "CCCCCCCCCCCCCCC1(O)C(C)=C(C)C2=[N+](Cc3ccc(C(F)(F)F)cc3)CCCN21 (stereo not drawn)",
    "TEST SYSTEM": "Aspergillus fumigatus",
    "MFC, µM": 19
  },
  {
    "MOLECULE": "CCCCCCCCCCCCCCC1(O)C(C)=C(C)C2=[N+](CC(=O)NCCCC)CCCN21 (stereo not drawn)",
    "TEST SYSTEM": "Aspergillus fumigatus",
    "MFC, µM": 7.5
  },
  {
    "MOLECULE": "CCCCCCCCCCCCCCC1(O)C(C)=C(C)C2=[N+](CC#N)CCCN21 (stereo not drawn)",
    "TEST SYSTEM": "Aspergillus fumigatus",
    "MFC, µM": 6
  },
  {
    "MOLECULE": "CCCCCCCCCCCCCCC1(O)C(C)=C(C)C2=[N+](CC(=O)NCCCN)CCCN21 (stereo not drawn)",
    "TEST SYSTEM": "Aspergillus fumigatus",
    "MFC, µM": 30
  },
  {
    "MOLECULE": "CCCCCCCCCCCCCCc1c(C)c(C)cn1CCCN",
    "TEST SYSTEM": "Aspergillus fumigatus",
    "MFC, µM": 19
  },
  {
    "MOLECULE": "CCCCCCCCCCCCCCC1(O)C(C)=C(C)C2=[N+](Cc3ccc(F)cc3)CCCN21 (stereo not drawn)",
    "TEST SYSTEM": "Aspergillus fumigatus",
    "MFC, µM": 3.1
  }
]

Shifting focus to the molecule that follows.
Task: Reported MFC for Aspergillus fumigatus, given CCCCCCCCCCCCCCC1(O)C(C)=C(C)C2=[N+](Cc3cccc(C(F)(F)F)c3)CCCN21 (stereo not drawn) ?
Output: 6.3
